# credit: PubChem BioAssay (NCI)

Test system: TK-10 renal
Experiment: NCI-60 one-dose screen, 48 h
Conditions: 10 µM unless noted
About 83,000 compounds went through this panel and 20% of them were active in at least one assay; those are over-represented in the sample as a whole. Calls of active or inactive are those of the source. Rule for the calls: active = growth percent below 10; inactive = the rest.
Possible outcomes: active, inactive

{"smiles_record": "O=C1/C(=C/c2ccc(F)cc2)CN(Cc2cn(CCNc3ccnc4cc(Cl)ccc34)nn2)C/C1=C\\c1ccc(F)cc1", "cat": "active"}
{"smiles_record": "O=C1c2[nH]cc(CN[C@@H]3CCCN3)c2C(=O)c2c1c(O)c1ccccc1c2O", "cat": "active"}
{"smiles_record": "COc1ccc(C(=O)COc2cccc(/C=C3\\CSc4ccc(C)cc4C3=O)c2)cc1", "cat": "inactive"}
{"smiles_record": "Cc1ccccc1-c1cc(-c2ccc(Br)s2)[nH]c(=O)c1C#N", "cat": "inactive"}
{"smiles_record": "COc1ccc(/C=N\\N2CCOCC2)cc1OC1CCCC1", "cat": "inactive"}
